# Target of assay: human CGT (ceramide galactosyltransferase), CHO/CGT lysate (Homo sapiens, UniProt Q16880)
# Construct: Full-length human CGT cDNA was cloned into the BamH1/Xho1 site of pcDNA3.1 (+); expressed in transfected cells; host or cells: Chinese hamster ovary (CHO) cells; lysate prepared with M-PER
# Sequence (Q16880 21-541): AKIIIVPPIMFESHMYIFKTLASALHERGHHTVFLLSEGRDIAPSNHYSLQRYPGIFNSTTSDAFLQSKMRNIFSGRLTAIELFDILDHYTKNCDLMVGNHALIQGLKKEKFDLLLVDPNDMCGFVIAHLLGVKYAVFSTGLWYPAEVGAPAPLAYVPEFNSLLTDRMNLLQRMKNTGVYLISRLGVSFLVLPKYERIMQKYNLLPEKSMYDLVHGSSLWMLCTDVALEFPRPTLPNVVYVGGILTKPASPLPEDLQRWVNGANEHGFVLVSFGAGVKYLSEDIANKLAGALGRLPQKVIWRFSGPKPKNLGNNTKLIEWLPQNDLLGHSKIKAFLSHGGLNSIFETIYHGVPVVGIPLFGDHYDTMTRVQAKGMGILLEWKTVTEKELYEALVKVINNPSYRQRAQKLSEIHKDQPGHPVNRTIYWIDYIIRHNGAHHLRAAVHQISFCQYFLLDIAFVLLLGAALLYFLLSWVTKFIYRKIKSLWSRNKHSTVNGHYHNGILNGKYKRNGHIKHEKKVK
# Experiment: CGT enzyme assay, LC-MS/MS readout (Table 1 ranges without asterisk)
# Format: biochemical
# Run parameters: LC-MS/MS method (range without asterisk)
pIC50: −log10 of the molar value. Counter-ions that a name gives are not always drawn.
Documented pIC50 across a set of compounds

{"Compound": "NC1CC2CCC(C1)N2C(=O)[C@H](NS(=O)(=O)c1ccc(Oc2ccc(Cl)cn2)cc1)C(F)(F)c1ccc(Br)cc1 (stereo partly drawn)", "pIC50": "4.00 to 4.52"}
{"Compound": "NC1CC2CCC(C1)N2C(=O)[C@@H](NS(=O)(=O)c1ccc(OCCC2CCCCC2)cc1)C(F)(F)c1ccc(Br)cc1 (stereo partly drawn) [Compound 26-1, trifluoroacetate]", "pIC50": "5.00 to 6.00"}

Continue with the next compound.
Find the recorded pIC50 belonging to CC(C)Oc1ccc2cc([C@@H](O)C(=O)N[C@H](C(=O)N3C4CCC3CC(N)C4)C(F)(F)c3ccc(Br)cc3)ccc2c1 (stereo partly drawn) [Compound 19-5, trifluoroacetate] and report it.
4.52 to 5.00

----------
Item-by-item account of pIC50
# Target of assay: human CGT (ceramide galactosyltransferase), CHO/CGT lysate (Homo sapiens, UniProt Q16880)
# Construct: Full-length human CGT cDNA was cloned into the BamH1/Xho1 site of pcDNA3.1 (+); expressed in transfected cells; host or cells: Chinese hamster ovary (CHO) cells; lysate prepared with M-PER
# Experiment: CGT enzyme assay, RapidFire/MS/MS readout with 0.01% Tween added (Table 1 ranges with two asterisks **)
# Format: biochemical
# Run parameters: CGT enzymatic assay; range with two asterisks (**): RapidFire/MS/MS method with 0.01% Tween added
pIC50: −log10 of the molar value. Counter-ions that a name gives are not always drawn.

Here's what some known entries look like.
{"Compound": "NC(=O)C1CCN(C(=O)[C@@H](NS(=O)(=O)c2ccc3cc(OC4CCCC4)ccc3c2)C(F)(F)c2ccc(-c3ccc(Cl)cc3)cc2)CC1", "pIC50": "5.00 to 6.00"}
{"Compound": "NC1CCN(C(=O)[C@H](NS(=O)(=O)c2ccc3cc(OC4CCCC4)ccc3c2)C(F)(F)c2ccc(C3(C(F)(F)F)CC3)cc2)CC1", "pIC50": "4.52 to 5.00"}
{"Compound": "NC1CC2CCC(C1)N2C(=O)[C@@H](NC(=O)[C@@H](O)c1ccc(OCC2CCCCC2)cc1)C(F)(F)c1ccc(-c2ccc(Cl)cc2)cc1 (some centres unmarked) [Compound 152-3, trifluoroacetate]", "pIC50": "5.00 to 6.00"}
{"Compound": "CC(C)Oc1cc(C(F)(F)[C@@H](NS(=O)(=O)c2ccc3cc(OC4CCCC4)ccc3c2)C(=O)N2CCC(N)CC2)ccc1Cl", "pIC50": "4.52 to 5.00"}

Here is another compound to look at.
Query: pIC50; subject: NC1CCN(C(=O)[C@@H](NS(=O)(=O)c2ccc3cc(OC4CCCC4)ccc3c2)C(F)(F)c2ccc(Cl)c(OC3CCCC3)c2)CC1 [Compound 170-1, trifluoroacetate]
5.00 to 6.00
